All figures here come from ChEMBL document CHEMBL1201862.

# System: NCI-H23
# protocol details: NCI tumour cell line growth inhibition, 48 h
Activity calls are given as the source filed them. Cut-off read from the data, not from the text of the source: active = GI50 up to about 1.1 µM and inactive = higher.
I would appreciate it if you answered using one of these outcomes: T (active), F (inactive)

[ask] // return assay outcome for CC(C)CC(N/C=C1/N=C(c2ccccc2)OC1=O)C(=O)O (stereo not drawn)
[reply] F

====

Can you tell me GI50 for the items I'm about to list?
# Test system: SN12C
# protocol details: NCI tumour cell line growth inhibition, 48 h
Calls of active or inactive are those of the source. No stated cut-off is given here; in the data, active = GI50 up to about 1.1 µM and inactive = higher.

Some compounds with known GI50 results, for comparison:
{"columns": ["compound", "GI50"],
 "data": [
  ["COc1cc2c(cc1OC)-c1c3c(cc4c1[C@@H](C2)N(C)CC4)OCO3", "6.14 µM (inactive)"],
  ["COc1ccc(/C(Cl)=C(\\C=O)c2ccc(OC)c(OC)c2)cc1", "81.8 µM (inactive)"],
  ["CC1(Cl)CC(C)(/C=C/Cl)C(Cl)CC1Cl (stereo unspecified)", "17.3 µM (inactive)"],
  ["Clc1ccc(OCc2nnc3n2N=C(c2ccccc2)CS3)cc1", "11.7 µM (inactive)"],
  ["Oc1c(C2=NNC(c3ccc(Cl)cc3Cl)C2)ccc2ccccc12 (stereo unspecified)", "32.6 µM (inactive)"]
]}

Value of GI50 reported for the compound `c1ccc2c(c1)nc1n2CSC1` is > 100 µM (inactive)

====

# Tested on: SF-268
# protocol details: NCI tumour cell line growth inhibition, 48 h
Calls of active or inactive are those of the source. No stated cut-off is given here; in the data, active = GI50 up to about 1.1 µM and inactive = higher.
I would appreciate it if you answered using one of these outcomes: active, inactive

Known results for compounds:
{"columns": ["compound", "assigned category"],
 "data": [
  ["Nc1ccc(-c2nc3cc(F)ccc3s2)cc1", "inactive"],
  ["CN/N=C(/CC(=O)c1sc(-n2nc(-c3ccccc3)cc2-c2ccccc2)nc1C)C(=O)Nc1ccc(Cl)c(Cl)c1", "inactive"],
  ["C=C(C)C(=O)O[C@H]1CC2=CC(CC(C)=C[C@H]3OC(=O)C(=C)C13)OC2=O (stereo not given in full)", "inactive"],
  ["CCCCCCCCCCCCOCCOCCOCCOCCOCCOCC(=O)NC(Cc1ccccc1)C(=O)Oc1ccc([N+](=O)[O-])cc1 (stereo not given)", "inactive"],
  ["Nc1ccc(S(=O)(=O)Nc2nccs2)cc1 [SULFATHIAZOLE]", "inactive"]
]}

[ask] // return assay outcome for N#CC1C(=O)NC(=O)C(C#N)C1c1ccc(Cl)c(Cl)c1 (stereo not given)
[reply] inactive

[ask] // return assay outcome for COc1cc2c(cc1OC)C1c3ccccc3C(C#N)(C2)N(C(=O)c2ccccc2)C1O (stereo not given)
[reply] inactive

[ask] // return assay outcome for O=C(CC1(O)C(=O)Nc2c(Cl)cc(Cl)cc21)c1ccco1 (stereo not given)
[reply] inactive

====

# Tested on: OVCAR-5
# protocol details: NCI tumour cell line growth inhibition, 48 h
Active and inactive are the calls of the source. Cut-off read from the data, not from the text of the source: active = GI50 up to about 1.1 µM and inactive = higher.
I would appreciate it if you answered using one of these outcomes: active, inactive

Known results for molecules:
{"columns": ["molecule", "assigned category"],
 "data": [
  ["Cc1ccc(S(=O)(=O)OCC(=O)O)cc1", "inactive"],
  ["CCOC(=O)C(=[N+]=[N-])C(=O)C[N+]12CCN(CC1)CC2", "inactive"],
  ["N=C(N)SCc1nc(-c2ccc(Cl)cc2)no1", "inactive"],
  ["Cc1ccc(C)n1-c1ccccc1C1C=Cn2c3c1c(=O)c(OC(C)C)c(OC(C)C)c-3n[nH]c2=O (stereo unspecified)", "inactive"]
]}

[ask] // return assay outcome for NC(CCCCNCc1ccccc1)C(=O)O (stereo unspecified)
[reply] inactive

[ask] // return assay outcome for `CCc1nc(Cl)nc(Cl)c1Cl`
[reply] active
